These measurements were taken from paper PMC10753699.

Measured G2/M % of individual entries
System: A549 cells
experimental_details: Cell cycle analysis by flow cytometry
Type: cell-based, human
condition_parameters: A549, 24 h incubation

{"compound": "CC(=O)Nc1ccccc1OCc1nnc(SCC(=O)Nc2ccc(Cl)cc2)o1", "measurement_unit": "%", "G2/M %": 18.58}
{"compound": "COc1ccc(NC(=O)CSc2nnc(COc3ccccc3NC(C)=O)o2)cc1", "measurement_unit": "%", "G2/M %": 12.14}
{"compound": "CC(=O)Nc1ccccc1OCc1nnc(SCC(=O)Nc2ccccc2)o1", "measurement_unit": "%", "G2/M %": 10.34}
{"compound": "CC(=O)Nc1ccccc1OCc1nnc(SCC(=O)Nc2nc3ccc(F)cc3s2)o1", "measurement_unit": "%", "G2/M %": 36.47}
{"compound": "N.N.[Cl][Pt][Cl] [cisplatin, reference compound]", "measurement_unit": "%", "G2/M %": 23.07}
{"compound": "CC(=O)Nc1ccccc1OCc1nnc(SCC(=O)Nc2ccc(F)cc2)o1", "measurement_unit": "%", "G2/M %": 24.03}

---

target: MMP-9 enzyme (Homo sapiens)
Measured IC50 of individual entries
parameter_measured: IC50 (µM)

{"compound": "CCOc1ccc2nc(NC(=O)CSc3nnc(COc4ccccc4NC(C)=O)o3)sc2c1", "target": "MMP-9 enzyme (Homo sapiens)", "value_measured": 7.1}
{"compound": "CC(=O)Nc1ccccc1OCc1nnc(SCC(=O)Nc2nc3ccc(C)cc3s2)o1", "target": "MMP-9 enzyme (Homo sapiens)", "value_measured": 19.5}
{"compound": "CC(=O)Nc1ccccc1OCc1nnc(SCC(=O)Nc2ccc(F)cc2)o1", "target": "MMP-9 enzyme (Homo sapiens)", "value_measured": 2.55}
{"compound": "CC(=O)Nc1ccccc1OCc1nnc(SCC(=O)Nc2nc3ccc(F)cc3s2)o1", "target": "MMP-9 enzyme (Homo sapiens)", "value_measured": 24.5}
{"compound": "COc1ccc(S(=O)(=O)N(CC(=O)NO)CC(C)C)cc1 [NNGH, reference compound]", "target": "MMP-9 enzyme (Homo sapiens)", "value_measured": 0.0074}

---

System: A549 human lung cancer cell line
experimental_details: MTT cell viability / cytotoxicity on A549
Assay type: cell-based
condition_parameters: Homo sapiens, A549, A549 cell line, MTT, mean ± S.D. of three determinations
pIC50: −log10 of the molar value.
Measured pIC50 of individual entries

{"molecule": "CC(=O)Nc1ccccc1OCc1nnc(SCC(=O)Nc2ccc(Cl)cc2)o1 [Compound 4k]", "target": "A549 human lung cancer cell line", "modifier": "=", "pIC50": 5.13}
{"molecule": "COc1ccc(NC(=O)CSc2nnc(COc3ccccc3NC(C)=O)o2)cc1 [Compound 4i]", "target": "A549 human lung cancer cell line", "modifier": "=", "pIC50": 5.80}
{"molecule": "CC(=O)Nc1ccccc1OCc1nnc(SCC(=O)Nc2ccccc2)o1 [Compound 4h]", "target": "A549 human lung cancer cell line", "modifier": ">", "pIC50": 6.85}
{"molecule": "CC(=O)Nc1ccccc1OCc1nnc(SCC(=O)Nc2ccc([N+](=O)[O-])cc2)o1 [Compound 4j]", "target": "A549 human lung cancer cell line", "modifier": ">", "pIC50": 5.06}
{"molecule": "CC(=O)Nc1ccccc1OCc1nnc(SCC(=O)Nc2nc3ccc([N+](=O)[O-])cc3s2)o1 [Compound 4d]", "target": "A549 human lung cancer cell line", "modifier": "<", "pIC50": 2.99}
{"molecule": "CC(=O)Nc1ccccc1OCc1nnc(SCC(=O)Nc2nc3ccc(Cl)cc3s2)o1 [Compound 4b]", "target": "A549 human lung cancer cell line", "modifier": "=", "pIC50": 4.61}
{"molecule": "CC(=O)Nc1ccccc1OCc1nnc(SCC(=O)Nc2nc3ccc(F)cc3s2)o1 [Compound 4f]", "target": "A549 human lung cancer cell line", "modifier": "=", "pIC50": 5.18}
{"molecule": "CC(=O)Nc1ccccc1OCc1nnc(SCC(=O)Nc2ccc(F)cc2)o1 [Compound 4l]", "target": "A549 human lung cancer cell line", "modifier": "=", "pIC50": 5.74}
{"molecule": "CCOc1ccc2nc(NC(=O)CSc3nnc(COc4ccccc4NC(C)=O)o3)sc2c1 [Compound 4g]", "target": "A549 human lung cancer cell line", "modifier": ">", "pIC50": 5.11}
{"molecule": "COc1ccc2nc(NC(=O)CSc3nnc(COc4ccccc4NC(C)=O)o3)sc2c1 [Compound 4c]", "target": "A549 human lung cancer cell line", "modifier": "<", "pIC50": 2.99}
{"molecule": "CC(=O)Nc1ccccc1OCc1nnc(SCC(=O)Nc2nc3ccccc3s2)o1 [Compound 4a]", "target": "A549 human lung cancer cell line", "modifier": "=", "pIC50": 4.65}
{"molecule": "CC(=O)Nc1ccccc1OCc1nnc(SCC(=O)Nc2nc3ccc(C)cc3s2)o1 [Compound 4e]", "target": "A549 human lung cancer cell line", "modifier": "=", "pIC50": 4.37}

---

Measured % (−): caspase-3 activity negative cells of individual entries
System: caspase-3
experimental_details: Caspase-3 activation in A549 cells
Assay type: cell-based, human
condition_parameters: A549, IC50 of the compounds, 24 h
parameter_measured: % (−): caspase-3 activity negative cells (%)

{"compound": "CC(=O)Nc1ccccc1OCc1nnc(SCC(=O)Nc2ccc(F)cc2)o1", "value_measured": 98.8}
{"compound": "CC(=O)Nc1ccccc1OCc1nnc(SCC(=O)Nc2nc3ccc(F)cc3s2)o1", "value_measured": 97.1}
{"compound": "COc1ccc(NC(=O)CSc2nnc(COc3ccccc3NC(C)=O)o2)cc1", "value_measured": 98.2}
{"compound": "N.N.[Cl][Pt][Cl] [cisplatin, reference compound]", "value_measured": 90.0}
{"compound": "CC(=O)Nc1ccccc1OCc1nnc(SCC(=O)Nc2ccccc2)o1", "value_measured": 97.5}
{"compound": "CC(=O)Nc1ccccc1OCc1nnc(SCC(=O)Nc2ccc(Cl)cc2)o1", "value_measured": 98.5}

---

Measured inhibition at 100 µg/mL of individual entries
target: MMP-9 enzyme (Homo sapiens, UniProt P14780)
Construct: purchased EnzoLife Sciences Inc. (Farmingdale, New York, NY, USA)
Sequence (P14780 107-444 limits assumed): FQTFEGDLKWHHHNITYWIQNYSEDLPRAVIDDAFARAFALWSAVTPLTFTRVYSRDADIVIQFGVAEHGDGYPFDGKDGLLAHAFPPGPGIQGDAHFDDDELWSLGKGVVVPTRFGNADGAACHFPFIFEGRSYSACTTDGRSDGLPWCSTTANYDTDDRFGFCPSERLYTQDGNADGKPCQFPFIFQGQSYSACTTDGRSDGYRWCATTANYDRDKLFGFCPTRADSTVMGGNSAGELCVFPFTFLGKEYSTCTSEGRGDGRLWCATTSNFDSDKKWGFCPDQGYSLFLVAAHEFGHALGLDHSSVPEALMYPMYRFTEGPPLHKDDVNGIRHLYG
experimental_details: MMP-9 colorimetric inhibition assay
Type: biochemical
condition_parameters: at 100 μg/mL
parameter_measured: inhibition at 100 µg/mL

{"molecule": "CC(=O)Nc1ccccc1OCc1nnc(SCC(=O)Nc2ccc([N+](=O)[O-])cc2)o1 [Compound 4j]", "target": "MMP-9 enzyme (Homo sapiens, UniProt P14780)", "value_measured": "> 50%"}
{"molecule": "CCOc1ccc2nc(NC(=O)CSc3nnc(COc4ccccc4NC(C)=O)o3)sc2c1 [Compound 4g]", "target": "MMP-9 enzyme (Homo sapiens, UniProt P14780)", "value_measured": "> 75%"}
{"molecule": "CC(=O)Nc1ccccc1OCc1nnc(SCC(=O)Nc2nc3ccc(C)cc3s2)o1 [Compound 4e]", "target": "MMP-9 enzyme (Homo sapiens, UniProt P14780)", "value_measured": "> 50%"}
{"molecule": "CC(=O)Nc1ccccc1OCc1nnc(SCC(=O)Nc2nc3ccc([N+](=O)[O-])cc3s2)o1 [Compound 4d]", "target": "MMP-9 enzyme (Homo sapiens, UniProt P14780)", "value_measured": "27.6%"}
{"molecule": "COc1ccc2nc(NC(=O)CSc3nnc(COc4ccccc4NC(C)=O)o3)sc2c1 [Compound 4c]", "target": "MMP-9 enzyme (Homo sapiens, UniProt P14780)", "value_measured": "30.6%"}
{"molecule": "CC(=O)Nc1ccccc1OCc1nnc(SCC(=O)Nc2ccc(Cl)cc2)o1 [Compound 4k]", "target": "MMP-9 enzyme (Homo sapiens, UniProt P14780)", "value_measured": "48.4%"}
{"molecule": "CC(=O)Nc1ccccc1OCc1nnc(SCC(=O)Nc2ccc(F)cc2)o1 [Compound 4l]", "target": "MMP-9 enzyme (Homo sapiens, UniProt P14780)", "value_measured": "> 75%"}
{"molecule": "CC(=O)Nc1ccccc1OCc1nnc(SCC(=O)Nc2nc3ccccc3s2)o1 [Compound 4a]", "target": "MMP-9 enzyme (Homo sapiens, UniProt P14780)", "value_measured": "41.4%"}
{"molecule": "CC(=O)Nc1ccccc1OCc1nnc(SCC(=O)Nc2ccccc2)o1 [Compound 4h]", "target": "MMP-9 enzyme (Homo sapiens, UniProt P14780)", "value_measured": "> 75%"}
{"molecule": "CC(=O)Nc1ccccc1OCc1nnc(SCC(=O)Nc2nc3ccc(F)cc3s2)o1 [Compound 4f]", "target": "MMP-9 enzyme (Homo sapiens, UniProt P14780)", "value_measured": "> 75%"}
{"molecule": "COc1ccc(NC(=O)CSc2nnc(COc3ccccc3NC(C)=O)o2)cc1 [Compound 4i]", "target": "MMP-9 enzyme (Homo sapiens, UniProt P14780)", "value_measured": "40.9%"}
{"molecule": "CC(=O)Nc1ccccc1OCc1nnc(SCC(=O)Nc2nc3ccc(Cl)cc3s2)o1 [Compound 4b]", "target": "MMP-9 enzyme (Homo sapiens, UniProt P14780)", "value_measured": "49.5%"}
